Tested on: MDA-MB-435
Assay text: NCI tumour cell line growth inhibition, 48 h
Readout type: TGI (µM)
Enter your answer as a number in µM; do not include the unit.

Worked examples, 3 molecules total:
query: Param readout = TGI; param system = MDA-MB-435; param query = "CS(=O)(=O)Nc1cc(-c2ccc3ncc(C#N)c(Nc4cccc(Cl)c4F)c3c2)cnc1Cl" ; response: value
result: 3

query: Record lookup: for MDA-MB-435, what TGI belongs to "Cc1ccc2c(n1)C(=O)C(Cl)=C(Nc1cccc(C)c1C)C2=O" ?
result: 3.72

query: Notebook: pull reported TGI for MDA-MB-435, entry "C#CCN(C)CCCOc1ccc(NC(=O)CCCCCCC(=O)NO)cc1Cl"
result: 5.97

Switching to the query record.
query: # returns recorded TGI (system: MDA-MB-435) for "Cc1ccc(C(=O)Nc2ccc(CNCCN3CCOCC3)c(C(F)(F)F)c2)cc1C#Cc1cnc2cccnn12"
result: 2.32
